meta.source: patent US20240116875A1

assaySummary: in vitro
testContext: microsomes
property: half-life

compound: NC(=O)c1ccc(NS(=O)(=O)c2cccc(-c3n[nH]c4cc(F)ccc34)c2)cc1 [Compound 15o]
assayValue: > 3.08 h

* * *

Catalogue of pIC50 readings, one per entry.
studyTarget: MEK7 (Homo sapiens)
Construct: purchased Carna Biosciences
assaySummary: ADP-Glo kinase activity assay, MEK7
Type: biochemical
testContext: headline value per compound; read-out: MEK7 IC50
pIC50: −log10 of the molar value.
property: pIC50

compound: O=S(=O)(Nc1cccc(-c2n[nH]c3cc(F)ccc23)c1)C1CC1 [Compound 12c]
studyTarget: MEK7 (Homo sapiens)
property: pIC50
assayValue: 5.19

compound: O=S(=O)(Nc1cccc(-c2n[nH]c3cc(F)ccc23)c1)c1cccnc1 [Compound 12a]
studyTarget: MEK7 (Homo sapiens)
property: pIC50
assayValue: 5.89

compound: CC(C)Oc1ccc(NS(=O)(=O)c2cccc(-c3n[nH]c4cc(F)ccc34)c2)cc1 [Compound 15i]
studyTarget: MEK7 (Homo sapiens)
property: pIC50
assayValue: 5.54

compound: NC(=O)c1ccc(NS(=O)(=O)c2cccc(-c3n[nH]c4cc(F)ccc34)c2)cc1 [Compound 15o]
studyTarget: MEK7 (Homo sapiens)
property: pIC50
assayValue: 7.02

* * *

studyTarget: recombinant active full-length human MEK4 (Homo sapiens)
Construct: recombinant active full-length human MEK4 (Carna Biosciences); purchased Carna Biosciences
Sequence (P45985 1-399): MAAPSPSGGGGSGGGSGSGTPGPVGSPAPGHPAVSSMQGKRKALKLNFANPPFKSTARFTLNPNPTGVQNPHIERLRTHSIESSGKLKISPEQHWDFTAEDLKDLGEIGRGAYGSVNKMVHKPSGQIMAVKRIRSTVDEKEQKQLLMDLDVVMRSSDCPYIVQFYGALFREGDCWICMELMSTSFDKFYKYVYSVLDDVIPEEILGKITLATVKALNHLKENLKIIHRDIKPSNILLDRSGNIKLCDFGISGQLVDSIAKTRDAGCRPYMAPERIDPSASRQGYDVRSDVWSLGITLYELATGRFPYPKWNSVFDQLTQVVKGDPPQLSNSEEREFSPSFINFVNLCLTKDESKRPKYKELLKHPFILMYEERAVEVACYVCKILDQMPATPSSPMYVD
assaySummary: ADP-Glo kinase activity assay, MEK4
Assay type: biochemical
testContext: headline value per compound; read-out: IC50 (MEK4, ADP-Glo)
pIC50: −log10 of the molar value.
# pIC50 per record follows

structure: C=CC(=O)Nc1ccccc1-c1n[nH]c2cc(F)ccc12
pIC50: < 4.10
//
structure: Cn1nc(-c2ccc3c(c2)OCO3)c2ccc(F)cc21
pIC50: < 4.10
//
structure: CCC(=O)Nc1ccccc1-c1n[nH]c2cc(F)ccc12
pIC50: < 4.10
//
structure: Nc1ccccc1-c1n[nH]c2cc(F)ccc12
pIC50: < 4.10
//
structure: NS(=O)(=O)c1ccc(-c2n[nH]c3cc(C(F)(F)F)ccc23)cc1
pIC50: 5.43
//
structure: Cc1ccc2c(-c3ccc(S(N)(=O)=O)cc3)n[nH]c2c1
pIC50: 5.57
//
structure: Fc1ccc2c(-c3ccc4c(c3)OCO4)nn(Cc3ccccc3)c2c1
pIC50: < 4.10

* * *

studyTarget: MEK7 (Homo sapiens, UniProt O14733)
Construct: purchased Carna Biosciences
Sequence (O14733 whole entry, species assumed): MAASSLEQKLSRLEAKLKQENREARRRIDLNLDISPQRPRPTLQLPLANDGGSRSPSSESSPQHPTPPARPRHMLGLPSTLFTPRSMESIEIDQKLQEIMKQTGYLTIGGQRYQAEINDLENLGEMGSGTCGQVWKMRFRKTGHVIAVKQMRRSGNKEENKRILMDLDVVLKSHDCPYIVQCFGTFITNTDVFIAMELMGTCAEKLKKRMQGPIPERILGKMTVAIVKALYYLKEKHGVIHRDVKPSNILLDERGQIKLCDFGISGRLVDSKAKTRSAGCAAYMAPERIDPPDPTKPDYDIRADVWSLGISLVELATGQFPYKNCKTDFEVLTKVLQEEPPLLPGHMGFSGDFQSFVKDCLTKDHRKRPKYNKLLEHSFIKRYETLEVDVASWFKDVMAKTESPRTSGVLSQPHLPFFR
assaySummary: ADP-Glo kinase activity assay, MEK7
Format: biochemical
testContext: headline value per compound; read-out: MEK7 IC50
pIC50: −log10 of the molar value.
Assign class by pIC50: not lower than 6 means Condition met; lower than 6 means Condition not met.

compound: O=S(=O)(NC1CC1)c1ccc(-c2n[nH]c3cc(F)ccc23)cc1 [Compound 13c]
studyTarget: MEK7 (Homo sapiens, UniProt O14733)
labelClass: Condition not met
//
compound: O=S(=O)(Nc1ccc(-c2n[nH]c3cc(F)ccc23)cc1)c1cccnc1 [Compound 11a]
studyTarget: MEK7 (Homo sapiens, UniProt O14733)
labelClass: Condition not met
//
compound: NS(=O)(=O)c1ccc(-c2n[nH]c3cc(F)ccc23)cc1 [Compound 10e]
studyTarget: MEK7 (Homo sapiens, UniProt O14733)
labelClass: Condition met
